# test protocol: soluble on expression in E. coli; label from the status in PepcDB or PDB records
assay metric: soluble on expression in E. coli

MTAATATANGNHSIEDPVVMKVQAASPIQETDFFENLYQMECFRTGEFYLKSGQMTPIYIDLRRIMSSPRVLRMAAQAMCEKIVASNLKFDYVVGVPYAALPLATLVSDILNVPMLMKRKEAKAYGTKQLIEGVYQPGGTVLLVEDVVTSGESIRETAEAIRNENLLVTDAIAVLDRQQGATANLAEDNLNFLSFLTMEKILDGLITKNEMTEERKHEIIAHLAKPF : soluble
DNRLKEENPDSTLRDTEYIDVGESPDGGKYRGVILFELGQLNKTNKIEKATLSLFWYYPEESRKEDTILEVYRPEKWCEEHISWGAREINTPWKNPGGDWYDKNGVSQGSTPYSTITFKSSSLPDNRYYELDVTELVREYISGKYENTGFLIKSRAEDSDYIAFYSSEWQNKNQMPRLSIEYKNE : not soluble
MGEKIKLEHGAGGEIMEELLRDVILKTLTLKSAGGIGLDALDDGATIPFGDKHIVFTIDGHTVKPLFFPGGDIGRLAVSGTVNDLAVMGAEPIALANSMIIGEGLDMEVLKRVLKSMDETAREVPVPIVTGDTKVVEDKIEMFVITAGIGIAEHPVSDAGAKVGDAVLVSGTIGDHGIALMSHREGIAFETELKSDVAPIWDVVKAVAETIGWENIHAMKDPTRAGLSNALNEIARKSNVGILVREADIPIRPEVRAASEMLGISPYDVANEGKVVMVVAREYAEEALEAMRKTEKGRNAAIIGEVIADYRGKVLLETGIGGKRFMEPPEGDPVPRIC : soluble
MAHHHHHHMWFGQLVIGPPGSGKSTYVAGVEHILRQINRKLVLINLDPFVENDVYKADVNISDLVDIKKVFCDLGLGPNGTLIYCMEYLLINFDWLEEKLKEHKDHYLLIDTPGQVELYTHNDALRKIVEKMTKMNCRLTSVHIVDSTLCSDNYKYVSALLLSLCSQIHLELPHVNVFSKIDLLKYFRDDLNFPLSYYVEAQNLEQLMLYARYQNESSSGSEGVNMGDDSPSGSLNDRSSCAQSAIKQAIRNDINSGRIKNVRKNYKKFSNKFLKLNEYICETVEDYNMINFALLDIQDKYSVLKLLKIIDGANGFRFSSIYSEYSLFDTYAEAIEYDCDDIQEKIVDVSDEEKEASLSGHPPHG : not soluble
MGSDKIHHHHHHILPNDESQKLIVNALINANKTNNAIFLALSGYHEPQVVKNGIIHLYINNVLSETISECTYRPNNDSPLDYQNYFYQISSRFKTGDQVRIEVETKDGKYKANAEATVYEPIEIIKADTIESNHSLSETSESLWIYQATKWKIKLQTPTTNHSQYYRVNIKQTYTYRLTNRKTLQDSTAISTQWECSGYYDTALMDGKPGTPNNSDPIINFIPTINNYYNVFNDAYFTNNQYTMTLDSWYSFLLDNKLYKIKKITGKAIIQYYAISPAEYQYLRAANAYADHDSSNLLETPVIFPNNIKGGIGIFAIENPTETSIPLKSIEDY : not soluble

Measured soluble on expression in E. coli of MGSDKIHHHHHHMIHLSPNDLPVGAPLPWSLLDGDGNLVLGSGNVIPDTRDVALVFRHGELCRLEADSGGDPQDDPLPRGPLGLQVGTLLHVKQPGDNSRAAASRLIGFVEQGLFMTWPQLGGRDLPVQAGDTLLLRGFSGRVIHSFTSTITAVCRSPFRYLVLSAPSQLDQMPVRKAARVPTRMAAYMTQSQESFQEADQDAFSAEMANGAARLVMVSDLSTGGAQIHAAGPAPVIGSRVQLRFRLRTASLDSEIVADAWVRAVTSDTADAEFPSFGISFDVLGEREMTLLQCFIYEQLLTSSGLGVHR : not soluble

The sequence identified as MHENMKDSLKRPLQDLRISVIDRCNFRCTYCMPAEVFGPDYAFLQEECLLTFDEIERLARLFISMGVNKIRLTGGEPLLRKDLPKLIARLAKLEGLKDIGLTTNGIHLAKQAKALKEAGLKRVNISLDAIEDRVFQKINGRHVSTKPVLKGIEAAKEAGLEVKVNMVVKKGMNDSQILPMAQYFKEQEIQLRFIEFMDVGSTNGWNFEQVVTKEQLIEKINRVYPIEPVKPRYFGEVAKLYRYVGNDAEVGFITSVSESFCSSCTRARISADGKFYTCLFGEKGTDLRSLLRENISDASLLKILQHTWEFRTDRYSDERTAESTNKRQKVEMSYIGG registered its soluble on expression in E. coli at not soluble

The reported soluble on expression in E. coli of the sequence MGSDKIHHHHHHMSLFNIFDVSGSGMAAQSIRLNTTASNIANADSVSSSVDKTYRARHPIFEAELNKAHDQQNGTKGVQVRAIVESDKPLLKEYSPSHPMADGDGFIYKPNVNVMEEMADMISASRSYQMNVQVADATKTMLQQTLRMGK was not soluble

The sequence listed as MLNRNRNVNKQNGHQKQNGAQKSELRGKNAPPYLERETCLGRNDIFVVEKMIAGGGFGQVYRARNTETQEEVAVKVERATTNDSQRMILESKVLDDMLGSKHFPNVYYIGPYHSYNFIVMQMLGKNIGDIRKMMPNKKISILSSVRIGIQIIEALSLLHSKGWLHRDLKPTNCCLGLDEKRKTVYLVDFGMSRKFRNDNGSLRESRTYCGFRGTTRYCSYRMHDRREQGPVDDLWCLYYSLGELIEGCLPWRDIESADEMAHVKKILKHEDIFHSMPSKFASFGRNLRRLRPANTPDYTKFQNILAYCVKFVDDNAEFEWDVMDY shows soluble on expression in E. coli equal to not soluble

The recorded soluble on expression in E. coli for entry MSNQLSPKPPVNPIVMGKIGSAYGIRGWLRVFSSTEDADSIFDYQPWFIQSKSGWQLVEIEGWKYHNQDLIIKVKGADDRDAANLLTNCEIVVDSSQLPDLGVGDYYWKDLIGCQVVTVTGYELGKIIDMMETGSNDVMVIKANLKDAFGVKERLVPFLTEQVVKRVDLSAQTIEVDWDPGFLEHHHHHH equals soluble

Noted for MKSSKASEEDLAAATEKMQSMKGKKSQAAAALEAEQAKAEKRLSCLLKARTKLSFRVIRDGIKCHGGIHLKKQSEKAELDISVTNTAINNLPSDADIVITHKDLTDRAKAKLPNATHISVDNFLNSPKYDELIEKLKSNLIEREYCHASTRKGNIKLNQTVSSKEEAIKLAGQTLIDNGYVTEDYISKMFDREETSSTFMGNFIAIPHGTEEAKSEVLHSGISIIQIPEGVEYGEGNTAKVVFGIAGKNNEHLDIL : its soluble on expression in E. coli reads soluble
